What CC50 was measured for each of the following?
# System: CCRF-CEM
# test summary: Cytotoxicity against human CEM cells by CellTiter 96 non-radioactive cell proliferation colorimetric assay
# Format: cell-based
# reported conditions: ccrf-cem
I'd appreciate it if you included the unit after the number.

O=C(Nc1ccc(F)c(F)c1)c1cc(S(=O)(=O)N2CCC3CCCCC32)ccc1F (stereo not given)	22.9 µM

Here are 4 molecules. What values of CC50 were reported for them?
1. O=C(Nc1cc(S(=O)(=O)NC2CCCC2)ccc1F)c1ccc(F)c(F)c1
2. O=C(Nc1ccc(F)c(F)c1)c1cc(NS(=O)(=O)C2CCCC2)ccc1F
3. O=C(Nc1ccc(F)c(F)c1)c1cc(NS(=O)(=O)C2CC2)ccc1F
4. CC(C)(NS(=O)(=O)c1ccc(F)c(C(=O)Nc2ccc(F)c(F)c2)c1)c1ccccc1

1: 13.6 µM; 2: 54.2 µM; 3: 11.8 µM; 4: 3.8 µM

###

What CC50 was measured for each of the following?
# Test system: CCRF-CEM
# test summary: Cytotoxicity against human CEM cells by CellTiter 96 non-radioactive cell proliferation colorimetric assay
# Type: cell-based
# reported conditions: ccrf-cem

O=C(Nc1ccc(F)c(F)c1)c1cc(S(=O)(=O)N2CCCC2=O)ccc1F	37.8 µM
CC(NS(=O)(=O)c1ccc(F)c(C(=O)Nc2ccc(F)c(F)c2)c1)c1ccccc1 (centres undefined)	3.6 µM
O=C(Nc1ccc(F)c(F)c1)c1cc(NS(=O)(=O)C2CCCCC2)ccc1F	74.5 µM
O=C(Nc1ccc(F)c(F)c1)c1cc(S(=O)(=O)NOC2CCCC2)ccc1F	6.4 µM
O=C(Nc1ccc(F)c(F)c1)c1cc(S(=O)(=O)N2CCC(F)(F)C2)ccc1F	4.8 µM

Here are 6 compounds. What values of CC50 were reported for them?
1. CS(=O)(=O)NS(=O)(=O)c1ccc(F)c(C(=O)Nc2ccc(F)c(F)c2)c1
2. O=C(Nc1ccc(F)c(F)c1)c1cc(S(=O)(=O)NS(=O)(=O)C2CC2)ccc1F
3. O=C(Nc1ccc(F)c(F)c1)c1cc(S(=O)(=O)NC2CCCC2)ccc1F
4. CCOC(=O)[C@H](CC(C)C)NS(=O)(=O)c1ccc(F)c(C(=O)Nc2ccc(F)c(F)c2)c1
5. CN(C)S(=O)(=O)NS(=O)(=O)c1ccc(F)c(C(=O)Nc2ccc(F)c(F)c2)c1
6. O=C(Nc1ccc(F)c(F)c1)c1cc(S(=O)(=O)N2CC(F)(F)C2)ccc1F

["> 100 µM", "> 100 µM", "14 µM", "10.8 µM", "> 100 µM", "3.7 µM"]

###

# test summary: Cytotoxicity against human CEM cells by CellTiter 96 non-radioactive cell proliferation colorimetric assay
# Type: cell-based, CCRF-CEM
# reported conditions: CEM (CCRF-CEM) cells
recorded endpoint: CC50

State its CC50 for this compound: `Nc1ccn([C@@H]2CS[C@H](CO)O2)c(=O)n1`
> 100 µM

###

# Test system: PBMC
# test summary: Cytotoxicity against human PBMC by CellTiter 96 non-radioactive cell proliferation colorimetric assay
# Assay type: cell-based
recorded endpoint: CC50

O=C(Nc1ccc(F)c(F)c1)c1cc(NS(=O)(=O)C2CCCCC2)ccc1F	> 100 µM

Here are 5 compounds. What values of CC50 were reported for them?
1. CC(C)(NS(=O)(=O)c1ccc(F)c(C(=O)Nc2ccc(F)c(F)c2)c1)c1ccccc1
2. O=C(Nc1ccc(F)c(F)c1)c1cc(S(=O)(=O)N2CC(F)(F)C2)ccc1F
3. O=C(Nc1ccc(F)c(F)c1)c1cc(S(=O)(=O)NOC2CCCC2)ccc1F
4. O=C(Nc1ccc(F)c(F)c1)c1cc(S(=O)(=O)N2CCC(F)(F)C2)ccc1F
5. COC(=O)[C@H](Cc1ccccc1)NS(=O)(=O)c1ccc(F)c(C(=O)Nc2ccc(F)c(F)c2)c1

1. > 100 µM
2. 69.1 µM
3. 13 µM
4. > 100 µM
5. > 100 µM

###

# Tested on: PBMC
# test summary: Cytotoxicity against human PBMC by CellTiter 96 non-radioactive cell proliferation colorimetric assay
# Format: cell-based
What CC50 was measured for each of the following?

O=C1c2cc(S(=O)(=O)NC3CCCC3)ccc2CCCN1c1ccc(F)c(F)c1	> 100 µM
CN(C1CCCC1)S(=O)(=O)c1ccc2c(c1)C(=O)N(c1ccc(F)c(F)c1)CCC2	> 100 µM

Here are 3 compounds. What values of CC50 were reported for them?
1. O=C(Nc1ccc(F)c(F)c1)c1cc(S(=O)(=O)NS(=O)(=O)c2ccc(F)c(F)c2)ccc1F
2. CN(C1CCCC1)S(=O)(=O)c1ccc(F)c(C(=O)Nc2ccc(F)c(F)c2)c1
3. O=C(Nc1cc(S(=O)(=O)NC2CCCC2)ccc1F)c1ccc(F)c(F)c1

1: > 100 µM; 2: 25.8 µM; 3: 81 µM

Here are 4 compounds. What values of CC50 were reported for them?
1. CCOC(=O)[C@H](CC(C)C)NS(=O)(=O)c1ccc(F)c(C(=O)Nc2ccc(F)c(F)c2)c1
2. CC(C)(NC(=O)c1cccc(S(=O)(=O)NC2CCCC2)c1)c1ccc(F)c(F)c1
3. O=C(Nc1ccc(F)c(F)c1)c1cc(S(=O)(=O)N2CCCC2=O)ccc1F
4. CN(C1CCCC1)S(=O)(=O)c1ccc2c(c1)C(=O)N(c1ccc(F)c(F)c1)CC2

1. 58.1 µM
2. > 100 µM
3. > 100 µM
4. 71.2 µM

###

# System: Vero
# test summary: Cytotoxicity against African green monkey Vero cells by CellTiter 96 non-radioactive cell proliferation colorimetric assay
# Assay type: cell-based
# reported conditions: chlorocebus sabaeus, vero
recorded endpoint: CC50

O=C(Nc1ccc(F)c(F)c1)c1cc(S(=O)(=O)N2CCC(F)(F)C2)ccc1F	21.3 µM
COC(=O)[C@H](Cc1ccccc1)NS(=O)(=O)c1ccc(F)c(C(=O)Nc2ccc(F)c(F)c2)c1	> 100 µM
CN(C1CCCC1)S(=O)(=O)c1ccc2c(c1)C(=O)N(c1ccc(F)c(F)c1)CCC2	> 100 µM

Let us move to another entry and its CC50.
// fetch CC50 for `O=C(Nc1cc(S(=O)(=O)NC2CCCC2)ccc1F)c1ccc(F)c(F)c1` ; system: Vero
87.5 µM

###

# Test system: Hepatitis B virus
# test summary: Antiviral activity against HBV infected in human HepAD38 cells assessed as reduction in extracellular viral DNA level by RT-PCR method
# Format: functional, organism-based
The threshold is 1 µM. Values of EC90 beneath it are tagged TRUE; values meeting or exceeding it are tagged FALSE.

// below: answered molecules
O=C(Nc1ccc(F)c(F)c1)c1cc(NS(=O)(=O)C2CCCCC2)ccc1F	FALSE
O=C(Nc1ccc(F)c(F)c1)c1cc(S(=O)(=O)NC2CCCC2)ccc1F	FALSE
C=C1[C@H](CO)[C@@H](O)C[C@@H]1n1cnc2c(=O)[nH]c(N)nc21.O	TRUE
O=C(Nc1ccc(F)c(F)c1)c1cc(NS(=O)(=O)C2CC2)ccc1F	FALSE
O=C(Nc1ccc(F)c(F)c1)c1cc(NS(=O)(=O)C2CCCC2)ccc1F	FALSE

I'd appreciate it if you could check whether `O=C(Nc1ccc(F)c(F)c1)c1cc(S(=O)(=O)N2CC(F)(F)C2)ccc1F` has EC90 smaller than 1 µM.
FALSE

I'd appreciate it if you could check whether Nc1ccn([C@@H]2CS[C@H](CO)O2)c(=O)n1 [LAMIVUDINE] has EC90 smaller than 1 µM.
TRUE

###

# target or system: Core antigen (Hepatitis B virus)
# test summary: Inhibition of capsid in HBV infected in human HepAD38 cells assessed as reduction in tetracycline-induced cccDNA formation by measuring reduction in HBe antigen secretion after 14 days by ELISA
# Type: cell-based
What EC90 was measured for each of the following?

Worked cases, EC90 given:
CCOC(=O)C1=C(CN2CCOCC2)NC(c2nccs2)=NC1c1ccc(F)cc1Br (stereo unspecified)	1.9 µM
O=C(Nc1ccc(F)c(F)c1)c1cc(NS(=O)(=O)C2CC2)ccc1F	> 10 µM
O=C(Nc1ccc(F)c(F)c1)c1cc(S(=O)(=O)N2CC(F)(F)C2)ccc1F	3.2 µM
O=C(Nc1ccc(F)c(F)c1)c1cc(NS(=O)(=O)C2CCCCC2)ccc1F	> 10 µM
O=C(Nc1ccc(F)c(F)c1)c1cc(NS(=O)(=O)C2CCCC2)ccc1F	> 10 µM

Let us move to another entry and its EC90.
State its EC90 for this compound: `O=C(Nc1ccc(F)c(F)c1)c1cc(S(=O)(=O)NC2CCCC2)ccc1F`
4.6 µM

###

What CC50 was measured for each of the following?
# Test system: Vero
# test summary: Cytotoxicity against African green monkey Vero cells by CellTiter 96 non-radioactive cell proliferation colorimetric assay
# Format: cell-based
# reported conditions: chlorocebus sabaeus, vero
Give bare numbers, in µM.

CC(C)(NC(=O)c1cccc(S(=O)(=O)NC2CCCC2)c1)c1ccc(F)c(F)c1	84.3
CCOC(=O)[C@H](CC(C)C)NS(=O)(=O)c1ccc(F)c(C(=O)Nc2ccc(F)c(F)c2)c1	39.1

Let us move to another entry and its CC50.
State its CC50 for this compound: `O=C(NC1(c2ccc(F)c(F)c2)CC1)c1cc(S(=O)(=O)NC2CCCC2)ccc1F`
12.7
